molecular target: truncated Influenza A/victoria/75 PA(1-209) (Influenza A virus (strain A/Victoria/3/1975 H3N2), UniProt P31343); experiment: Endonuclease Inhibition Assay (PA FP Assay); conditions: fluorescence polarization, fluorescein-labeled probe
READOUT_KIND: IC50 (nM)
Answers are plain numbers, in nM.

O=c1cnn2c(c1O)-c1nccn1C[C@@H]2[C@@H](c1ccc(F)cc1)c1cccc(F)c1
9
N#Cc1cccc([C@H](c2ccc(F)cc2)[C@H]2Cn3ccnc3-c3c(O)c(=O)cnn32)c1
20
Cc1nc2n(c1C)C[C@H](C(c1ccccc1)c1ccccc1)n1ccc(=O)c(O)c1-2
100

Batch request: IC50 per item, same order as input.
1. O=c1ccn2c(c1O)-c1ncc(C3CC3)n1C[C@@H]2C(c1ccccc1)c1ccccc1
2. O=c1cnn2c(c1O)-c1nccn1C[C@@H]2[C@H](c1ccccc1)c1ccc(F)cc1
3. CCC1N(C(c2ccccc2)c2ccccc2)n2ccc(=O)c(O)c2-c2nccn21 (centres unmarked)
4. O=c1cnn2c(c1O)-c1nccn1C[C@@H]2[C@H](c1ccc(F)cc1)c1cncc(F)c1
5. O=c1ccn2c(c1O)-c1ncc(Br)n1C[C@@H]2C(c1ccccc1)c1ccccc1

A.
[40, 20, 40, 40, 9]
